# Experimental target: serotonin transporter (SERT) (Homo sapiens)
# Construct: expressed in transfected cells; host or cells: CHO cells
# Sequence (P31645 whole entry): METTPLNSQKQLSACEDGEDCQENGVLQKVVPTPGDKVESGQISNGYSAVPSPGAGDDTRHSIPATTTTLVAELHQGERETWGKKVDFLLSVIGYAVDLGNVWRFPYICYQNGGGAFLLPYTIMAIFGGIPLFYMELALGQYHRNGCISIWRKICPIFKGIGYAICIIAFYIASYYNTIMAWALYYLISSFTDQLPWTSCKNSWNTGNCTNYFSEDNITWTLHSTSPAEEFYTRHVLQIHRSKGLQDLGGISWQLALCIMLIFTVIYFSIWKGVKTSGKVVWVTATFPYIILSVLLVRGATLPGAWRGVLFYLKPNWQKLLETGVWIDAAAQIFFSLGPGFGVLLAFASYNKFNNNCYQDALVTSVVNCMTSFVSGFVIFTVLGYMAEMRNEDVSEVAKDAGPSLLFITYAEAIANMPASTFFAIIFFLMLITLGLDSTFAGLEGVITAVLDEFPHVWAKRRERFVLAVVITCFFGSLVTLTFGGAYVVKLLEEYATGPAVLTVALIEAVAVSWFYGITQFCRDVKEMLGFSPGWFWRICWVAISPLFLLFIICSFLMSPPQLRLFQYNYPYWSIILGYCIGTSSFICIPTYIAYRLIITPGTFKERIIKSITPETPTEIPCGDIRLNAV
# Assay comment: Radioligand binding assay, serotonin transporter (SERT)
# Experimental context: binding assay, test compound 1×10^−6 M
Assay endpoint: inhibition at 1 µM (%)
Answers are plain numbers, in %.

Examples with answers:
O=S(=O)(NCC1CCN(CCOc2cccc3c2OCCO3)C1)c1cccs1 (stereo not shown)
37
Cc1c(S(=O)(=O)NCC2CN(CCCc3noc4cc(F)ccc34)C2)sc2ccc(F)cc12
64
O=S(=O)(NC1CCN(CCCc2c[nH]c3ccc(Cl)cc23)C1)c1ccccc1 (stereo not shown)
78
O=S(=O)(N[C@H]1CCN(CCCc2noc3cc(F)ccc23)C1)c1cc2ccccc2s1
58
CC1(C)Cc2cccc(OCCN3CCC(NS(=O)(=O)c4ccc5ccccc5c4)C3)c2O1 (stereo not shown)
36

// each listed molecule needs a value for inhibition at 1 µM
1. O=S(=O)(NC1CCN(CCOc2cccc3[nH]ccc23)C1)c1cccc2ccccc12 (stereo not shown)
2. O=S(=O)(NC1CCN(CCOc2cccc3[nH]ccc23)C1)c1ccc2ccccc2c1 (stereo not shown)

1: 56; 2: 46

###

# Experimental target: serotonin transporter (SERT) (Homo sapiens)
# Construct: expressed in transfected cells; host or cells: CHO cells
# Assay comment: Radioligand binding assay, serotonin transporter (SERT)
# Experimental context: binding assay, test compound 1×10^−6 M
Would you kindly list inhibition at 1 µM for each of these compounds?
Give bare numbers, in %.

List inhibition at 1 µM for every entry below, keeping the order given.
1. Cc1cccc(S(=O)(=O)NC2CCN(CCCc3c[nH]c4ccc(Cl)cc34)C2)c1 (centres unmarked) [Compound 86]
2. O=S(=O)(NC1CCN(CCCc2noc3cc(F)ccc23)C1)c1ccc2ccccc2c1 (centres unmarked) [Compound 21]
3. O=S(=O)(NCC1CCN(CCCc2noc3cc(F)ccc23)C1)c1ccc(F)c(Cl)c1 (centres unmarked) [Compound 263]
4. O=S(=O)(NC1CN(CCOc2cccc3[nH]ccc23)C1)c1cccc(Cl)c1 [Compound 47]
5. CC1(C)Cc2cccc(OCCN3CCC(CNS(=O)(=O)c4ccc5ccccc5c4)C3)c2O1 (centres unmarked) [Compound 114]

1. 105
2. 59
3. 11
4. 6
5. 5

###

# Experimental target: 5-HT7 receptor (Homo sapiens)
# Construct: purchased PerkinElmer
# Sequence (P34969 whole entry): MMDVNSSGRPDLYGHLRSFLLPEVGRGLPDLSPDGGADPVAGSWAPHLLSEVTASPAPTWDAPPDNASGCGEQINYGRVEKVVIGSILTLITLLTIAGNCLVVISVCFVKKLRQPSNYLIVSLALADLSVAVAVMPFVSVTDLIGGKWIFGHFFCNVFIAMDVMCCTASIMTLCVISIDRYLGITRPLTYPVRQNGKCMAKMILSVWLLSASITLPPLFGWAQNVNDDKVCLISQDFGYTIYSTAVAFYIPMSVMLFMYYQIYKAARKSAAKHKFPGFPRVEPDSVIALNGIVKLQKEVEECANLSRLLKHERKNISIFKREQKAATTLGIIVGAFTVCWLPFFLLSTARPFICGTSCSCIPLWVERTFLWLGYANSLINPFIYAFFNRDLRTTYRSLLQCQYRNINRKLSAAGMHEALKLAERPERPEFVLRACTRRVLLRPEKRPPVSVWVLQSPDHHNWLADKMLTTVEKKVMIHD
# Assay comment: Radioligand binding assay, serotoninergic 5-HT7 receptors;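 also: test compound at 1 µM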
# Experimental context: binding assay result in %, Table 5a
Assay endpoint: 5-HT7 [%] (%)
Numbers only, in %.

Sample answers from the record:
O=S(=O)(NC1CCN(CCOc2cccc3ccccc23)CC1)c1ccc2ccccc2c1
89
O=S(=O)(NCC1CCN(CCOc2cccc3[nH]ccc23)CC1)c1ccc2ccccc2c1
79
O=S(=O)(NC1CCN(CCOc2cccc3c2OCCO3)C1)c1ccc2ccccc2c1 (stereo not shown)
90
O=S(=O)(NC1CCN(CCOc2cccc3c2OCCO3)CC1)c1ccccc1
93
O=S(=O)(NC1CCN(CCOc2cccc3[nH]ccc23)CC1)c1ccccc1
96
O=S(=O)(NC1CCN(CCOc2cccc3c2OCCO3)C1)c1cccc2ccccc12 (stereo not shown)
100
O=S(=O)(NC1CCN(CCOc2cccc3c2OCCO3)CC1)c1cccc2ccccc12
103
O=S(=O)(NCC1CCN(CCOc2ccc3cc[nH]c3c2)CC1)c1cccc2ccccc12
31

Go through the items and report each one's 5-HT7 [%].
1. O=S(=O)(NC1CN(CCOc2cccc3c2OCCO3)C1)c1ccccc1
2. O=S(=O)(NC1CCN(CCOc2nsc3ccccc23)CC1)c1ccc2ccccc2c1
3. O=S(=O)(NC1CN(CCOc2cccc3c2OCCO3)C1)c1ccc(F)cc1
4. CC1(C)Cc2cccc(OCCN3CCC(NS(=O)(=O)c4ccc5ccccc5c4)CC3)c2O1

1. 84
2. 85
3. 92
4. 99
